Can you tell me pIC50 for the items I'm about to list?
biological target: human CSNK1A1 (Homo sapiens (Human), UniProt P48729); test: CSNK1A1 Assay 2 (ADP-Glo, 1 μM ATP); type: biochemical; conditions: substrate biotin-Ahx-KRRRAL-pS-VASLPGL, read-out: CSNK1A1 Assay 2 IC50 [mol/l] (median)
Sequence (P48729 whole entry): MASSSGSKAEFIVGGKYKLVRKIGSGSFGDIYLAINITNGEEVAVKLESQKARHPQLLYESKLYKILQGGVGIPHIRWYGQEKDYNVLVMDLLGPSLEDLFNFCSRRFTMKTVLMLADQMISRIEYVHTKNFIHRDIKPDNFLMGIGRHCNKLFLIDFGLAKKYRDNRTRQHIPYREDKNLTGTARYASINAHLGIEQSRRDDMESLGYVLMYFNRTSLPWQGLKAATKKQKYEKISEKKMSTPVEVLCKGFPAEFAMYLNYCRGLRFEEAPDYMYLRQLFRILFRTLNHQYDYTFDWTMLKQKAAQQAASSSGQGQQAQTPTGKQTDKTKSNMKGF
Just the number, please; pIC50 means minus log10 of the concentration in mol/L.

# input compound: CC1(C)Cc2[nH]c(-c3ccnc(NC(=O)C(CC(F)F)c4ccc(F)cc4)c3)c(Nc3cccc(F)c3)c2C(=O)N1 (single isomer, unassigned; enantiomer 2) [Example 121] ; wanted: its pIC50 7.15

# input compound: CC(C(=O)Nc1cc(-c2[nH]c3c(c2Nc2ccccc2)C(=O)N(C)CC3)ccn1)c1ccncc1 (racemic) [Example 72] ; wanted: its pIC50 8.40

# input compound: CCN1CCc2[nH]c(-c3ccnc(NC(=O)C(C)c4ccc(F)cc4)c3)c(Nc3ccccc3)c2C1=O (stereo not drawn) [Example 21] ; wanted: its pIC50 8.12

====

biological target: wild-type Epidermal Growth Factor Receptor (EGFR) (Homo sapiens (Human), UniProt P00533); assay: WT-EGFR Kinase Assay (TR-FRET, 2 mM ATP); format: biochemical; details: EGFR Wildtyp- 2 mM ATP IC50 [mol/l] (median)
Sequence (P00533 669-1210): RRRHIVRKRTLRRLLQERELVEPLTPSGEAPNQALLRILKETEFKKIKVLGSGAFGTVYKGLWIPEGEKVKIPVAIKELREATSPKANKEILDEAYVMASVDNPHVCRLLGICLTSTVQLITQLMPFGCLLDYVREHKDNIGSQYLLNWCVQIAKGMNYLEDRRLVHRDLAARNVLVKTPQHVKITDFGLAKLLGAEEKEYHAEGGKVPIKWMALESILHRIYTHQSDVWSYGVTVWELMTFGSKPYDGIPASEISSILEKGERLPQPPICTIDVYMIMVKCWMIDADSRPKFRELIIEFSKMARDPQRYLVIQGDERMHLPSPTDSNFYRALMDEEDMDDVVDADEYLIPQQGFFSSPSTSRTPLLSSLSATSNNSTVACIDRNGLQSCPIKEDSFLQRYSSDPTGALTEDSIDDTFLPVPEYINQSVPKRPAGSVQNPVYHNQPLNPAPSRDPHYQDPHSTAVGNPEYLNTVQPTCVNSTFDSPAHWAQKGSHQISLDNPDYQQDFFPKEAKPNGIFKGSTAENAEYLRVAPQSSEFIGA
Can you tell me IC50 for the items I'm about to list?

So what IC50 did CC1Cc2[nH]c(-c3ccnc(NC(=O)Cc4ccc(F)cc4)c3)c(Nc3ccccc3)c2C(=O)N1C (single isomer, unassigned; (-)) [Example 90] get with wild-type Epidermal Growth Factor Receptor (EGFR) (Homo sapiens (Human), UniProt P00533)? 0.561 µM

So what IC50 did CN1C(=O)c2c([nH]c(-c3ccnc(NC(=O)C(CC(F)F)c4ccc(F)cc4)c3)c2Nc2ccccc2F)CC1(C)C (single isomer, unassigned) [Example 46] get with wild-type Epidermal Growth Factor Receptor (EGFR) (Homo sapiens (Human), UniProt P00533)? > 20 µM

So what IC50 did CC1(C)Cc2[nH]c(-c3ccnc(NC(=O)C(CC(F)F)c4ccc(S(C)(=O)=O)cc4)c3)c(Nc3ccccc3)c2C(=O)N1 (racemic) get with wild-type Epidermal Growth Factor Receptor (EGFR) (Homo sapiens (Human), UniProt P00533)? 7.26 µM

So what IC50 did CC(C(=O)Nc1cc(-c2[nH]c3c(c2Nc2ccccc2)C(=O)N(C)C(C)C3)ccn1)c1ccc(F)cc1 (single isomer, unassigned; (-)) [Example 93] get with wild-type Epidermal Growth Factor Receptor (EGFR) (Homo sapiens (Human), UniProt P00533)? > 20 µM

So what IC50 did CC1(C)Cc2[nH]c(-c3ccnc(NC(=O)C(CC(F)F)c4ccc(F)cc4)c3)c(Nc3cccc(F)n3)c2C(=O)N1 (single isomer, unassigned; enantiomer 1) [Example 129] get with wild-type Epidermal Growth Factor Receptor (EGFR) (Homo sapiens (Human), UniProt P00533)? > 20 µM

So what IC50 did O=C1NC2(CCC2)Cc2[nH]c(-c3ccnc(NC(=O)C(CC(F)F)c4ccc(F)cc4)c3)c(Nc3ccccc3)c21 (racemic) [Example 54] get with wild-type Epidermal Growth Factor Receptor (EGFR) (Homo sapiens (Human), UniProt P00533)? > 20 µM

So what IC50 did "Cc1ccccc1Nc1c(-c2ccnc(NC(=O)Cc3ccc(F)cc3)c2)[nH]c2c1C(=O)NC(C)(C)C2" get with wild-type Epidermal Growth Factor Receptor (EGFR) (Homo sapiens (Human), UniProt P00533)? > 5.71 µM

So what IC50 did CC1Cc2[nH]c(-c3ccnc(NC(=O)C(CC(F)F)c4ccc(F)cc4)c3)c(Nc3ccccc3F)c2C(=O)N1C (single isomer, unassigned; (+)) get with wild-type Epidermal Growth Factor Receptor (EGFR) (Homo sapiens (Human), UniProt P00533)? > 20 µM

So what IC50 did "O=C(Cc1ccc(F)cc1)Nc1cc(-c2[nH]c3c(c2Nc2ccccc2)C(=O)N(CC2CC2)CC3)ccn1" get with wild-type Epidermal Growth Factor Receptor (EGFR) (Homo sapiens (Human), UniProt P00533)? 18.1 µM

So what IC50 did CC1Cc2[nH]c(-c3ccnc(NC(=O)Cc4ccc(F)cc4)c3)c(Nc3ccccc3)c2C(=O)N1C (single isomer, unassigned; (+)) [Example 89] get with wild-type Epidermal Growth Factor Receptor (EGFR) (Homo sapiens (Human), UniProt P00533)? 6.05 µM

So what IC50 did CN1C(=O)c2c([nH]c(-c3ccnc(NC(=O)C(CC(F)F)c4ccc(F)cc4)c3)c2Nc2ccccc2F)CC1(C)C (racemic) [Example 45] get with wild-type Epidermal Growth Factor Receptor (EGFR) (Homo sapiens (Human), UniProt P00533)? > 20 µM

So what IC50 did CN(C)CCCC(C(=O)Nc1cc(-c2[nH]c3c(c2Nc2ccccc2)C(=O)N(C)CC3)ccn1)c1ccccc1 (racemic) [Example 58] get with wild-type Epidermal Growth Factor Receptor (EGFR) (Homo sapiens (Human), UniProt P00533)? > 20 µM

So what IC50 did CC(C(=O)Nc1cc(-c2[nH]c3c(c2Nc2ccccc2)C(=O)N(C)C2(CCC2)C3)ccn1)c1ccc(F)cc1 (racemic) [Example 157] get with wild-type Epidermal Growth Factor Receptor (EGFR) (Homo sapiens (Human), UniProt P00533)? > 20 µM

So what IC50 did CC(C(=O)Nc1cc(-c2[nH]c3c(c2Nc2ccccc2)C(=O)N(C)CC3)ccn1)c1ccc(Cl)cc1 (single isomer, unassigned; (-)) [Example 80] get with wild-type Epidermal Growth Factor Receptor (EGFR) (Homo sapiens (Human), UniProt P00533)? > 20 µM

So what IC50 did O=C(Cc1ccc(F)cc1)Nc1cc(-c2[nH]c3c(c2Nc2ccccc2)C(=O)NC(C(F)(F)F)C3)ccn1 (racemic) get with wild-type Epidermal Growth Factor Receptor (EGFR) (Homo sapiens (Human), UniProt P00533)? 2 µM

So what IC50 did CN1CCc2[nH]c(-c3ccnc(NC(=O)C(CC(F)F)c4ccccc4)c3)c(Nc3ccccc3)c2C1=O (single isomer, unassigned) [Example 34] get with wild-type Epidermal Growth Factor Receptor (EGFR) (Homo sapiens (Human), UniProt P00533)? > 20 µM

So what IC50 did CC1(C)Cc2[nH]c(-c3ccnc(NC(=O)C(CN)c4ccc(F)cc4)c3)c(Nc3ccccc3)c2C(=O)N1 (racemic) [Example 139] get with wild-type Epidermal Growth Factor Receptor (EGFR) (Homo sapiens (Human), UniProt P00533)? 0.681 µM

So what IC50 did CC(C(=O)Nc1cc(-c2[nH]c3c(c2Nc2ccccc2Cl)C(=O)NCC3)ccn1)c1ccc(F)cc1 (single isomer, unassigned) get with wild-type Epidermal Growth Factor Receptor (EGFR) (Homo sapiens (Human), UniProt P00533)? > 20 µM

So what IC50 did Cc1ccccc1Nc1c(-c2ccnc(NC(=O)C(CC(F)F)c3ccc(F)cc3)c2)[nH]c2c1C(=O)NC1(CCC1)C2 (racemic) [Example 143] get with wild-type Epidermal Growth Factor Receptor (EGFR) (Homo sapiens (Human), UniProt P00533)? > 20 µM

So what IC50 did CN1C(=O)c2c([nH]c(-c3ccnc(NC(=O)C(CC(F)F)c4ccc(F)cc4)c3)c2Nc2ccccc2)CC12CCC2 (single isomer, unassigned; enantiomer 1) [Example 161] get with wild-type Epidermal Growth Factor Receptor (EGFR) (Homo sapiens (Human), UniProt P00533)? > 20 µM

So what IC50 did CC1(C)Cc2[nH]c(-c3ccnc(NC(=O)C(CC(F)F)c4ccc(F)cc4)c3)c(Nc3cccc(F)c3Cl)c2C(=O)N1 (single isomer, unassigned; (+)) [Example 111] get with wild-type Epidermal Growth Factor Receptor (EGFR) (Homo sapiens (Human), UniProt P00533)? 1.14 µM

So what IC50 did CC(C(=O)Nc1cc(-c2[nH]c3c(c2Nc2ccccc2)C(=O)N(C)C(C)C3)ccn1)c1ccc(F)cc1 (single isomer, unassigned; (+)) [Example 92] get with wild-type Epidermal Growth Factor Receptor (EGFR) (Homo sapiens (Human), UniProt P00533)? > 20 µM

So what IC50 did CN1CCc2[nH]c(-c3ccnc(NC(=O)C(CCN4CCOCC4)c4ccccc4)c3)c(Nc3ccccc3)c2C1=O (single isomer, unassigned) get with wild-type Epidermal Growth Factor Receptor (EGFR) (Homo sapiens (Human), UniProt P00533)? > 20 µM

====

Can you tell me pIC50 for the items I'm about to list?
Just the number, please; pIC50 means minus log10 of the concentration in mol/L.

So what pIC50 did CC(C(=O)Nc1cc(-c2[nH]c3c(c2Nc2ccccc2)C(=O)N(C)CC3)ccn1)c1ccc(Cl)cc1 (racemic) [Example 79] get with human CSNK1D (Homo sapiens (Human), UniProt P48730)? 7.71

So what pIC50 did CN(C)CCCC(C(=O)Nc1cc(-c2[nH]c3c(c2Nc2ccccc2)C(=O)N(C)CC3)ccn1)c1ccccc1 (single isomer, unassigned; (-)) [Example 59] get with human CSNK1D (Homo sapiens (Human), UniProt P48730)? 7.06

So what pIC50 did CC(C(=O)Nc1cc(-c2[nH]c3c(c2Nc2ccccc2)C(=O)N(C)C(C)C3)ccn1)c1ccc(F)cc1 (single isomer, unassigned; (+)) [Example 92] get with human CSNK1D (Homo sapiens (Human), UniProt P48730)? 7.97

So what pIC50 did CN1C(=O)c2c([nH]c(-c3ccnc(NC(=O)C(CC(F)F)c4ccc(F)cc4)c3)c2Nc2ccccc2F)CC1(C)C (racemic) [Example 45] get with human CSNK1D (Homo sapiens (Human), UniProt P48730)? 7.88

So what pIC50 did CN1CCc2[nH]c(-c3ccnc(NC(=O)Cc4ccc(S(C)(=O)=O)cc4)c3)c(Nc3ccccc3)c2C1=O [Example 65] get with human CSNK1D (Homo sapiens (Human), UniProt P48730)? 8.26

So what pIC50 did CC(C(=O)Nc1cc(-c2[nH]c3c(c2Nc2ccccc2)C(=O)N(C)C2(CCC2)C3)ccn1)c1ccc(F)cc1 (racemic) [Example 157] get with human CSNK1D (Homo sapiens (Human), UniProt P48730)? 7.80

So what pIC50 did O=C(Cc1ccc(F)cc1)Nc1cc(-c2[nH]c3c(c2Nc2cccc(F)c2Cl)C(=O)NC2(CCC2)C3)ccn1 [Example 122] get with human CSNK1D (Homo sapiens (Human), UniProt P48730)? 8.33

So what pIC50 did CC1(C)Cc2[nH]c(-c3ccnc(NC(=O)C(CN)c4ccc(F)cc4)c3)c(Nc3ccccc3)c2C(=O)N1 (single isomer, unassigned; enantiomer 1) [Example 140] get with human CSNK1D (Homo sapiens (Human), UniProt P48730)? 8.00

So what pIC50 did CN1CCc2[nH]c(-c3ccnc(NC(=O)Cc4c(F)cc(F)cc4F)c3)c(Nc3ccccc3)c2C1=O [Example 164] get with human CSNK1D (Homo sapiens (Human), UniProt P48730)? 8.51

So what pIC50 did CC(C(=O)Nc1cc(-c2[nH]c3c(c2Nc2ccccc2Cl)C(=O)NCC3)ccn1)c1ccc(F)cc1 (stereo not shown) [Example 14] get with human CSNK1D (Homo sapiens (Human), UniProt P48730)? 7.85

So what pIC50 did CN1CCc2[nH]c(-c3ccnc(NC(=O)C(CO)c4ccc(F)cc4)c3)c(Nc3ccccc3)c2C1=O (stereo not shown) [Example 17] get with human CSNK1D (Homo sapiens (Human), UniProt P48730)? 7.41

So what pIC50 did O=C(Cc1ccc(F)cc1)Nc1cc(-c2[nH]c3c(c2Nc2ccccc2)C(=O)NC2(CC2)C3)ccn1 [Example 146] get with human CSNK1D (Homo sapiens (Human), UniProt P48730)? 8.20

So what pIC50 did O=C(Cc1ccc(F)cc1)Nc1cc(-c2[nH]c3c(c2Nc2ccccc2)C(=O)N(C2CC2)CC3)ccn1 [Example 7] get with human CSNK1D (Homo sapiens (Human), UniProt P48730)? 8.07
